This collection of values is drawn from ChEMBL document CHEMBL1201862.

tested on: EKVX; test: NCI tumour cell line growth inhibition, 48 h
Calls of active or inactive are those of the source. Cut-off read from the data, not from the text of the source: active = GI50 up to about 1.1 µM and inactive = higher.
Respond using exactly one of the listed classes: Y = active, N = inactive

>  <compound>
Cc1cc(N)c2cc(NC(=O)CCCCCCCCC(=O)Nc3ccc4nc(C)cc(N)c4c3)ccc2n1

>  <label class>
N

$$$$
>  <compound>
Nc1ccc2[nH]c(C(=O)N3CC(CCl)c4c3cc(N)c3ccccc43)cc2c1 (stereo not given)

>  <label class>
Y

$$$$
>  <compound>
O=[N+]([O-])c1ccc(C(Nc2ccccc2)P(c2ccccc2)c2ccccc2)cc1 (stereo not given)

>  <label class>
N

$$$$
>  <compound>
CCOc1nc2sc3c(c2c(=O)n1CCSSCCn1c(OCC)nc2sc4c(c2c1=O)CCCC4)CCCC3

>  <label class>
N

$$$$
>  <compound>
CCOC(=O)C1N(S(=O)(=O)c2ccc(C)cc2)CCC12c1ccccc1N(C(C)=O)C2c1ccc(OC)c(OC)c1 (stereo not given)

>  <label class>
N

$$$$

[Q] // outcome(item) with item = Cc1ccc(S(=O)(=O)NC2CCCCO2)cc1 (stereo not given)
[A] N

[Q] In this assay, the call recorded for "N#Cc1c(-c2ccccc2)c(/N=N/c2ccc(F)cc2)c(=O)n2c1[nH]c1ccccc12" was what?
[A] N

====

system: DMS-273; test: NCI tumour cell line growth inhibition, 48 h
Active and inactive are the calls of the source. No stated cut-off is given here; in the data, active = GI50 up to about 1.1 µM and inactive = higher.
A correct response names exactly one class from Yes (active), No (inactive)

>  <compound>
CCOC(=O)N1C(=O)C2C3C=CC(C2C1=O)C1C2C(=O)N(C(=O)OCC)C(=O)C2C31 (stereo unspecified)

>  <label class>
No

$$$$
>  <compound>
N#CC(C#N)=c1c2nsnc2c(=C(C#N)C#N)c2nsnc12

>  <label class>
No

$$$$
>  <compound>
NC1(C(=O)O)CCCC1

>  <label class>
No

$$$$
>  <compound>
c1ccc2cc3n[se]nc3cc2c1

>  <label class>
No

$$$$
>  <compound>
Cc1nc2c(n1CCC(C)C)C(=O)c1ccccc1C2=O

>  <label class>
No

$$$$

[Q] Dear all, I need the recorded test outcome for CC(=O)C1(O)CCC2(O)C3(O)CC=C4CC(O)CCC4(C)C3CC(OC(=O)c3ccc(O)cc3)C12C.COC1CC(OC2C(C)OC(OC3C(C)OC(OC4CCC5(C)C(=CCC6(O)C5CC(OC(=O)c5ccc(O)cc5)C5(C)C(O)(C(C)=O)CCC65O)C4)CC3OC)CC2OC)OC(C)C1O (stereo unspecified) , thank you.
[A] No

[Q] Assay outcome for "COc1cc2c(c(OC)c1OC)-c1ccc(SC)c(=O)cc1[C@@H](NC(=O)c1ccc([N+](=O)[O-])cc1)CC2" : what was it?
[A] Yes

====

GI50 overview
tested on: M19-MEL; test: NCI tumour cell line growth inhibition, 48 h
The source made the active and inactive calls. Rule as the data show it: active = GI50 up to about 1.1 µM and inactive = higher.

[Q] What measured GI50 goes with "O=C(/C=C/c1ccc(OCCCOc2ccc(/C=C/C(=O)c3ccccc3)cc2)cc1)c1ccccc1" ?
[A] > 100 µM (inactive)

[Q] Item CC(=O)NC(CCCCNCc1ccccc1)C(=O)NCc1ccccc1 (centres undefined) has what recorded GI50?
[A] > 100 µM (inactive)

[Q] Look at this molecule and give its reported GI50. "CCc1ccccc1NC(=O)C1=C(C)NC(C)=C(C(=O)Nc2ccccc2CC)C1c1ccc2c(c1)OCO2"
[A] 40.9 µM (inactive)

[Q] Query: GI50; subject: "CCSc1c2ccccc2nc2c(OC)ccc(OC)c12"
[A] 18.5 µM (inactive)

[Q] Please report the recorded GI50 for CCOC(=O)C1N(S(=O)(=O)c2ccc(C)cc2)CCC12c1ccccc1N(C(C)=O)C2c1ccc(OC)c(OC)c1 (centres undefined) .
[A] > 100 µM (inactive)

====

test system: EKVX; experiment: NCI tumour cell line growth inhibition, 48 h
Active and inactive are the calls of the source. No stated cut-off is given here; in the data, active = GI50 up to about 1.1 µM and inactive = higher.
observation type: GI50

Use the examples below as a reference point.
>  <compound>
CC(=O)NC(CCCCNCc1ccccc1)C(=O)NCc1ccccc1 (configuration not stated)

>  <GI50>
> 100 µM (inactive)

$$$$
>  <compound>
Nc1nc(O)c2ncn(C3C=CC(CO)C3)c2n1 (configuration not stated)

>  <GI50>
> 100 µM (inactive)

$$$$
>  <compound>
CCN(CC)c1ccc(/N=C2/C=CC(=O)c3ncccc32)c(C)c1

>  <GI50>
16.6 µM (inactive)

$$$$
>  <compound>
C[N+]12CCCCC1C(CN1C(=O)Cc3c4ccccc4c(c4ccccc34)CC1=O)CCC2 (configuration not stated)

>  <GI50>
> 100 µM (inactive)

$$$$
>  <compound>
CSc1nc(=O)cnn1C

>  <GI50>
> 100 µM (inactive)

$$$$

[Q] Which GI50 is listed for "CCN(CC)CCNC(=O)c1ccccc1Nc1c(Cl)cccc1Cl" ?
[A] 12.7 µM (inactive)

[Q] Request the reported GI50 associated with "CCC/C(Cl)=N\OC(=O)Nc1ccc(Br)cc1"
[A] 14.6 µM (inactive)

[Q] Which GI50 value belongs to "Cc1ccc(C(=O)N/N=C(\N=N\c2ccccc2C(=O)O)c2ccc(N(C)C)cc2)cc1" ?
[A] 75.2 µM (inactive)

[Q] Which GI50 reading was recorded for the compound "O=C1c2ccccc2-c2nc3ccncc3n21" ?
[A] > 100 µM (inactive)

[Q] Sample "CCOc1c(Br)cc(Br)cc1C=C(C#N)C#N" — what was its GI50?
[A] > 10 µM (inactive)

[Q] Please look up its GI50: FC(F)(F)c1ccc2c(c1)nc(-c1ccc(Cl)cc1)n2CC1CCCN2CCCCC12 (configuration not stated)
[A] 9.91 µM (inactive)

[Q] Please report the recorded GI50 for "CCCc1n[nH]c(=O)n1N1C(=O)C=CC1=O" .
[A] > 100 µM (inactive)

====

system: OVCAR-4; experiment: NCI tumour cell line growth inhibition, 48 h
The source made the active and inactive calls. No stated cut-off is given here; in the data, active = GI50 up to about 1.1 µM and inactive = higher.
observation type: GI50

>  <compound>
Cc1cccc2c1C/C(=C\c1cccc(C)c1C(=O)O)C2=O

>  <GI50>
> 100 µM (inactive)

$$$$
>  <compound>
c1ccc2cc3n[se]nc3cc2c1

>  <GI50>
> 100 µM (inactive)

$$$$
>  <compound>
NCc1ccc(O)c(O)c1O

>  <GI50>
26.1 µM (inactive)

$$$$
>  <compound>
CSc1nc(=O)cnn1C

>  <GI50>
> 100 µM (inactive)

$$$$

Continue with the next compound.
[Q] I am curious: what GI50 value has been reported for "CCOC(=O)CCn1cnc(N)n1" ?
[A] > 100 µM (inactive)

====

test system: XF498; assay: NCI tumour cell line growth inhibition, 48 h
Calls of active or inactive are those of the source. Cut-off read from the data, not from the text of the source: active = GI50 up to about 1.1 µM and inactive = higher.
Log the outcome using a class from active, inactive

Please review the entries below; each comes with its answer.
>  <compound>
COC(=O)C(=O)CC(=O)CCn1ncc(Cl)c(Cl)c1=O

>  <label class>
inactive

$$$$
>  <compound>
CN[C@H](C)[C@@H](OC)c1ccccc1

>  <label class>
inactive

$$$$
>  <compound>
Cc1cc(N)c2cc(NC(=O)CCCCCCCCC(=O)Nc3ccc4nc(C)cc(N)c4c3)ccc2n1

>  <label class>
inactive

$$$$
>  <compound>
Nc1c(Cl)ncnc1NCCCCCCCCCCCCNc1ncnc(Cl)c1N

>  <label class>
active

$$$$
>  <compound>
C/C(=N\NC(=S)N1CCN(c2ccccn2)CC1)c1ccccn1

>  <label class>
active

$$$$

[Q] Given CC(=O)/C=C/c1ccc(C2CC(C)=Nc3c(ccc4c3C(=O)c3ccccc3C4=O)N2)cc1 (stereo unspecified) , state the outcome it received in this test.
[A] inactive

[Q] Assay outcome for "CC(C)(C)C(=O)Nc1ccccc1Br" : what was it?
[A] inactive

[Q] Record request — test call for "O=C(CCN(CCO)CCO)Nc1ccc2c(c1)C(=O)c1ccc(NC(=O)CCN(CCO)CCO)cc1C2=O"
[A] inactive

[Q] Short answer needed: outcome of this test for "NC1(C(=O)O)CCCC1" ?
[A] inactive

[Q] Answer briefly: the call reported for "CN(CCN(C)C(=O)CCOS(C)(=O)=O)C(=O)CCOS(C)(=O)=O" in this assay.
[A] inactive

[Q] Recorded test call requested for "COc1cc(O)c2c(c1)C(=O)C=C(Cl)C2=O"
[A] inactive

====

tested on: Hs-578T; assay: NCI tumour cell line growth inhibition, 48 h
Calls of active or inactive are those of the source. Rule as the data show it: active = GI50 up to about 1.1 µM and inactive = higher.
observation type: GI50

The examples below pair each entry with its known result.
>  <molecule>
Cc1ccc(S(=O)(=O)Oc2cc(S(=O)(=O)O)cc3cc(S(=O)(=O)O)cc(N)c23)cc1

>  <GI50>
> 100 µM (inactive)

$$$$
>  <molecule>
NCc1ccc(O)c(O)c1O

>  <GI50>
10.7 µM (inactive)

$$$$
>  <molecule>
CCOC(=O)NC(Nc1ccc(F)cc1)(C(=O)OCC)C(F)(F)F (stereo unspecified)

>  <GI50>
> 100 µM (inactive)

$$$$

[Q] Item under review: CCCCCCCCCCCCCCCCCCNC(=O)OCC(CNS(=O)(=O)CCC[n+]1cccc2ccccc21)COC (stereo unspecified) . Reported GI50?
[A] 2 µM (inactive)

[Q] Please report the recorded GI50 for "Cc1cccc2c1C/C(=C\c1cccc(C)c1C(=O)O)C2=O" .
[A] > 100 µM (inactive)

[Q] Reported GI50, molecule "CC(C)CNCCc1ccccn1" : ____
[A] > 100 µM (inactive)

[Q] What GI50 value was documented for this molecule, OCC1OC(n2cnc3c2N=CNC[C@H]3O)C(Cl)C1O (stereo partly specified) ?
[A] > 100 µM (inactive)
